Data credit: paper PMC5069578

# Format: in vivo, human
# test settings: human, plasma, po, 4 mg, Geometric mean AUC0-216 (%CV), fed (test), single 4-mg oral dose, n = 15

compound | AUC(0-t)
CC(C)C[C@H](NC(=O)CNC(=O)c1cc(Cl)ccc1Cl)B(O)O [ixazomib] | 999 ng·h/mL

----------
# Type: in vivo, human
# test settings: human, plasma, po, 4 mg, Geometric mean Cmax (%CV), fasted (reference), single 4-mg oral dose, n = 15

compound | unit of measure | Cmax
CC(C)C[C@H](NC(=O)CNC(=O)c1cc(Cl)ccc1Cl)B(O)O [ixazomib] | ng/mL | 77

----------
# Type: in vivo, human
# test settings: human, plasma, po, 4 mg, Geometric mean Cmax (%CV), fed (test), single 4-mg oral dose, n = 15

structure smiles | unit of measure | Cmax
CC(C)C[C@H](NC(=O)CNC(=O)c1cc(Cl)ccc1Cl)B(O)O | ng/mL | 22.8
